- TESTED ON: Stimulator of interferon genes protein (Homo sapiens, UniProt Q86WV6, G230A/R293Q/R71H)
- Sequence (Q86WV6 whole entry R71H/G230A/R293Q): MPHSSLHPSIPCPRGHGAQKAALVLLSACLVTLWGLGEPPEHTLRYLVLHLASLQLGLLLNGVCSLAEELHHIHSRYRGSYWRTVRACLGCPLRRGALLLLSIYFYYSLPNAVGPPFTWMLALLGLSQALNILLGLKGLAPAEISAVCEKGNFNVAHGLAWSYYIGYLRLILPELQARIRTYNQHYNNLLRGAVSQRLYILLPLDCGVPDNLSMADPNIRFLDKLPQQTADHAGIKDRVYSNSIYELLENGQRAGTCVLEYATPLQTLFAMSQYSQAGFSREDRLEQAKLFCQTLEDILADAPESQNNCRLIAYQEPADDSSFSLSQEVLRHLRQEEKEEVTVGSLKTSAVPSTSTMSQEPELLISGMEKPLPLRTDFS
- PROTOCOL SUMMARY: Inhibition of cGAMP-induced STING HAQ mutant transfected in human THP1-Blue ISG cells preincubated with compound for 6 hrs followed by cGAMP addition and measured after 18 hrs by QUANTI-Blue based microplate reader analysis
- Assay type: cell-based
pIC50: −log10 of the molar value.
Exercise: for every item that follows, state its recorded pIC50.

# annotated cases, reported pIC50 shown
CC(C)(C)c1ccc(N2C(=O)c3ccccc3C(C(N)=O)C2c2cc3cc(-c4ccc(C(=O)Nc5ccc(O)c(NS(C)(=O)=O)c5)cc4)ccc3s2)cc1Cl (stereo not drawn) :: 6.36
CC(C)(C)c1ccc(N2C(=O)c3ccccc3C(C(N)=O)C2c2ccc(Oc3ccc(C(=O)Nc4ccc(O)c(NS(C)(=O)=O)c4)cc3)cc2)cc1Cl (stereo not drawn) :: < 5.00

Attention now shifts to the item below.
Report pIC50 for CC(C)(C)c1ccc(N2C(=O)c3ccccc3C(C(N)=O)C2c2ccc(Oc3ccc(C(=O)Nc4ccc(O)cc4)cc3)cc2)cc1Cl (stereo not drawn) please.
< 5.00

----------
- PROTOCOL SUMMARY: Half life in mouse at 20 mg/kg, po by LC-MS/MS analysis
- Assay type: ADME, organism-based
- PARTICULARS: in vivo
MEASURED METRIC: half-life (h)
Give bare numbers, in h.

Request the reported half-life associated with COc1ccc2c(c1)C(=O)N(c1ccc(C(C)(C)C)c(F)c1)C(c1cc3cc(-c4ccc(C(=O)Nc5ccc(O)c(NS(C)(=O)=O)c5)cc4)ccc3o1)C2C(N)=O (stereo unspecified)
3.3

----------
- PROTOCOL SUMMARY: AUC in mouse at 20 mg/kg, po by LC-MS/MS analysis
- Assay type: ADME, organism-based
- PARTICULARS: in vivo
MEASURED METRIC: AUC (ng·h/mL)
Numbers only, in ng·h/mL.

Look up AUC for this compound: COc1ccc2c(c1)C(=O)N(c1ccc(C(C)(C)C)c(F)c1)C(c1cc3cc(-c4ccc(C(=O)Nc5ccc(O)c(NS(C)(=O)=O)c5)cc4)ccc3o1)C2C(N)=O (stereo unspecified)
2020

----------
Assignment: determine reported half-life at 10 µM for the given compounds.
- PROTOCOL SUMMARY: Metabolic stability in mouse liver microsomes assessed as half life at 10 uM in presence of NADPH by LC-MS/MS analysis
- Assay type: ADME, Microsome

Use the examples below as a reference point.
COc1ccc2c(c1)C(=O)N(c1ccc(C(C)(C)C)c(Cl)c1)C(c1cc3cc(-c4ccc(C(=O)Nc5ccc(O)c(NS(C)(=O)=O)c5)cc4)ccc3o1)C2C(N)=O (stereo not drawn) :: > 1 h
CC(C)(C)c1ccc(N2C(=O)c3ccccc3C(C(N)=O)C2c2cc3cc(-c4ccc(C(=O)Nc5ccc(O)c(NS(C)(=O)=O)c5)cc4)ccc3o2)cc1Cl (stereo not drawn) :: > 1 h

Okay, now this compound:
// query half-life at 10 µM value for entry COc1ccc2c(c1)C(=O)N(c1ccc(C(C)(C)C)c(F)c1)C(c1cc3cc(-c4ccc(C(=O)Nc5ccc(O)c(NS(C)(=O)=O)c5)cc4)ccc3o1)C2C(N)=O (stereo not drawn)
> 1 h

----------
- TESTED ON: Stimulator of interferon genes protein (Homo sapiens, UniProt Q86WV6, G230A/R293Q/R71H)
- PROTOCOL SUMMARY: Inhibition of cGAMP-induced STING HAQ mutant transfected in human THP1-Blue ISG cells preincubated with compound for 6 hrs followed by cGAMP addition and measured after 18 hrs by QUANTI-Blue based microplate reader analysis
- Type: cell-based
MEASURED METRIC: IC50

Completed entries (count: 2):
CC(C)(C)c1ccc(N2C(=O)c3ccccc3C(C(N)=O)C2c2ccc(Oc3ccc(C(=O)Nc4cccc(NS(C)(=O)=O)c4)cc3)cc2)cc1Cl (stereo unspecified) :: > 10 µM
CC(=O)Nc1cc(NC(=O)c2ccc(Oc3ccc(C4C(C(N)=O)c5ccccc5C(=O)N4c4ccc(C(C)(C)C)c(Cl)c4)cc3)cc2)ccc1O (stereo unspecified) :: 2.5 µM

List the reported IC50 of each compound below.
1. CC(C)(C)c1ccc(N2C(=O)c3cc(F)ccc3C(C(N)=O)C2c2ccc3sc(-c4ccc(C(=O)Nc5ccc(O)c(NS(=O)(=O)C6CC6)c5)cc4)cc3c2)cc1Cl (stereo unspecified)
2. CC(C)(C)c1ccc(N2C(=O)c3ccccc3C(C(N)=O)C2c2cc3cc(-c4ccc(C(=O)Nc5ccc(O)c(NC(=O)C(F)(F)F)c5)cc4)ccc3o2)cc1Cl (stereo unspecified)
3. CS(=O)(=O)Nc1cc(NC(=O)c2ccc(-c3ccc4oc(C5C(C(N)=O)c6ccccc6C(=O)N5c5ccc(C6CC6)c(Cl)c5)cc4c3)cc2)ccc1O (stereo unspecified)
4. CC(C)(C)c1ccc(N2C(=O)c3ccccc3C(C(N)=O)C2c2ccc(Oc3ccc(C(=O)Nc4ccc(NS(C)(=O)=O)cc4)cc3)cc2)cc1Cl (stereo unspecified)

1. > 10 µM
2. 5.8 µM
3. 0.11 µM
4. > 10 µM

The measured values listed here are drawn from ChEMBL document CHEMBL6182913.
